Tested on: BCP-1
Assay: WST-1 cytotoxicity assay, BCP-1 (KSHV+ PEL)
Assay type: cell-based
Conditions: BCP-1, 72 h, read-out: CC50, BCP-1
// classify: if (CC50 < 2000 nM) Y else N

Reference set, count: 3
1) Cc1sc2c(c1C)C(c1ccc(Cl)cc1)=N[C@H](CC(=O)O[C@@H](C)c1ccc(C(=O)Nc3ccccc3N)cc1)c1nnc(C)n1-2 [009N2]	N
2) COC(=O)c1ccc([C@@H](C)OC(=O)C[C@@H]2N=C(c3ccc(Cl)cc3)c3c(sc(C)c3C)-n3c(C)nnc32)cc1 [009N3]	N
3) Cc1sc2c(c1C)C(c1ccc(Cl)cc1)=N[C@H](CC(=O)O[C@H](C)c1ccc(C(=O)Nc3ccccc3N)cc1)c1nnc(C)n1-2 [009N1]	N

Lab note: CC50 threshold 2000 nM. Does this compound come in strictly under it? COC(=O)c1ccc([C@H](C)OC(=O)C[C@@H]2N=C(c3ccc(Cl)cc3)c3c(sc(C)c3C)-n3c(C)nnc32)cc1 [009N4]
Y

Consider Cc1sc2c(c1C)C(c1ccc(Cl)cc1)=N[C@@H](CC(=O)O[C@@H](C)c1ccc(C(=O)Nc3ccccc3N)cc1)c1nnc(C)n1-2 [009P2] . Does its CC50 lie strictly below 2000 nM?
Y

Given the entry Cc1sc2c(c1C)C(c1ccc(Cl)cc1)=N[C@@H](CC(=O)O[C@H](C)c1ccc(C(=O)Nc3ccccc3N)cc1)c1nnc(C)n1-2 [009P1] , would its reported CC50 be below 2000 nM?
Y
